Values from ChEMBL document CHEMBL1145782

Molecular target: Muscarinic acetylcholine receptor M2 (Sus scrofa) (UniProt P06199)
Sequence (whole entry): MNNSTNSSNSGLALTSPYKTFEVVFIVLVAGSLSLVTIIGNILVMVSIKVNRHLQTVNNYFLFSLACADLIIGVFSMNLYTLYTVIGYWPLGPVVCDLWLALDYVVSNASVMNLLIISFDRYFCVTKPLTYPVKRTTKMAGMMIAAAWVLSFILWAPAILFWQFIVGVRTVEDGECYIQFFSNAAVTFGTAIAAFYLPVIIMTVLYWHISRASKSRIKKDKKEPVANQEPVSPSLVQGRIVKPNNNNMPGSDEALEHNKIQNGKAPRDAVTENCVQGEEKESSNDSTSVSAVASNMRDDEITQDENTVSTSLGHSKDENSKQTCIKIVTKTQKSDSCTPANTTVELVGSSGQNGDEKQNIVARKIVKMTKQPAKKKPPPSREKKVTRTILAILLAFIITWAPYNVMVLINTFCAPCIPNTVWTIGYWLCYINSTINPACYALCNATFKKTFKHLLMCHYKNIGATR
Assay: Tested for binding of [3H]N-methylscopolamine ([3H]NMS) at porcine heart ventricle muscarinic acetylcholine receptor M2 expressed as -logKa.
Threshold check on -logKa: strictly below 7 is rule met; on or above 7 is rule not met.

> print(dat)
                                   compound   label.value
1  C[N+](C)(CCCCCC[N+](C)(C)CCCN1C(=O)C2C3c4ccccc4C(c4ccccc43)C2C1=O)CCCN1C(=O)c2ccccc2C1=O (configuration not stated)  rule not met
2  Cc1ccc2c(c1)C(=O)N(CCC[N+](C)(C)CCCCCC[N+](C)(C)CC(C)(C)CN1C(=O)c3cccc4cccc(c34)C1=O)C2=O  rule not met
3  C[N+](C)(CCCCCC[N+](C)(C)CCCN1C(=O)c2cc3ccccc3cc2C1=O)CCCN1C(=O)c2ccccc2C1=O  rule not met
4  C[N+](C)(CCCCCC[N+](C)(C)CCCN1C(=O)c2ccc(C(F)(F)F)cc2C1=O)CCCN1C(=O)c2ccc(C(F)(F)F)cc2C1=O      rule met
5  C[N+](C)(CCCCCC[N+](C)(C)CCCN1C(=O)c2cc3ccccc3cc2C1=O)CCCN1C(=O)c2cc3ccccc3cc2C1=O  rule not met
6  C[N+](C)(CCCCCC[N+](C)(C)CCCN1C(=O)c2ccccc2C1=O)CCCN1C(=O)c2ccccc2C1=O      rule met

====

Target: Muscarinic acetylcholine receptor M2 (Sus scrofa) (UniProt P06199)
Sequence (whole entry): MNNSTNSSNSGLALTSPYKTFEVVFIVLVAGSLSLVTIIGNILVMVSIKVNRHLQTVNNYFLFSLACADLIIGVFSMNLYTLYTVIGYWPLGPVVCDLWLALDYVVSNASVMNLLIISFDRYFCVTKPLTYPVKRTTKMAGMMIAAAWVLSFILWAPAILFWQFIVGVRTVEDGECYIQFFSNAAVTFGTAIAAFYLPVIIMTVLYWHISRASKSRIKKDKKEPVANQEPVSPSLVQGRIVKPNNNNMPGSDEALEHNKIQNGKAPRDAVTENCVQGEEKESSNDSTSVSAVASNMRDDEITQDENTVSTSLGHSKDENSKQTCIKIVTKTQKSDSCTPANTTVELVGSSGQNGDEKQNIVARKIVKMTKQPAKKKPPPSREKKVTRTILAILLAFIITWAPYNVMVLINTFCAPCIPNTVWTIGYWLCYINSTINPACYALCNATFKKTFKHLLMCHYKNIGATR
Experiment: Binding affinity for [3H]NMS-occupied muscarinic acetylcholine receptor M2 from porcine heart ventricle.
Given measured p alphaKa, output Y if it is greater than or equal to 7 and N if not.

> print(dat)
                                   compound                               test.system  label.value
1  C[N+](C)(CCCCCC[N+](C)(C)CCCN1C(=O)c2cc3ccccc3cc2C1=O)CCCN1C(=O)c2cc3ccccc3cc2C1=O  Muscarinic acetylcholine receptor M2 (Sus scrofa) (UniProt P06199)            N
2  CC(C)(CN1C(=O)c2ccccc2C1=O)C[N+](C)(C)CCCCCC[N+](C)(C)CCCN1C(=O)c2cccc3cccc(c23)C1=O  Muscarinic acetylcholine receptor M2 (Sus scrofa) (UniProt P06199)            Y
3  C[N+](C)(CCCCCC[N+](C)(C)CCCN1C(=O)c2nccnc2C1=O)CCCN1C(=O)c2nccnc2C1=O  Muscarinic acetylcholine receptor M2 (Sus scrofa) (UniProt P06199)            N
4  CC(C)(CN1C(=O)c2cccc3cccc(c23)C1=O)C[N+](C)(C)CCCCCC[N+](C)(C)CCCN1C(=O)c2cccc3cccc(c23)C1=O  Muscarinic acetylcholine receptor M2 (Sus scrofa) (UniProt P06199)            Y
5  Cc1ccc2c(c1)C(=O)N(CC(C)(C)C[N+](C)(C)CCCCCC[N+](C)(C)CC(C)(C)CN1C(=O)c3ccc(C)cc3C1=O)C2=O  Muscarinic acetylcholine receptor M2 (Sus scrofa) (UniProt P06199)            Y
6  CC(C)(C)c1ccc2c(c1)C(=O)N(CCC[N+](C)(C)CCCCCC[N+](C)(C)CCCN1C(=O)c3ccccc3C1=O)C2=O  Muscarinic acetylcholine receptor M2 (Sus scrofa) (UniProt P06199)            N

====

Target: UniProt P06199
Sequence (P06199 whole entry): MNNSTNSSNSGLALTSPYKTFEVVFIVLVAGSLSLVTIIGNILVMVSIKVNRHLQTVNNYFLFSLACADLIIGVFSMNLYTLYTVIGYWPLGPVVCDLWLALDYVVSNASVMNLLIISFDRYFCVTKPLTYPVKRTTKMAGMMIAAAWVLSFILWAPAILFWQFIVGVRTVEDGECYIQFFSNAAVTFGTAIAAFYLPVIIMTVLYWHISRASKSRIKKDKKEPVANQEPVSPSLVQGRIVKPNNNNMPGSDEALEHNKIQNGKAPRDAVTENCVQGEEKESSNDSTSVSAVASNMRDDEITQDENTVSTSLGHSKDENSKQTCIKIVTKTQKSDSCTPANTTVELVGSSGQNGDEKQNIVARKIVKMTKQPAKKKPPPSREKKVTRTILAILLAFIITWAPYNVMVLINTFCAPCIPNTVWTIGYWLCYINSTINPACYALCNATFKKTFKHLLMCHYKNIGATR
Assay: Effective concentration required to inhibit dissociation of [3H]NMS from porcine heart ventricles muscarinic acetylcholine receptor M2.
test_readout: log10 EC50 (log10 of the value in nM)

> print(dat)
                                    molecule  test.readout  readout.number
 1  Cc1ccc2c(c1)C(=O)N(CCC[N+](C)(C)CCCCCC[N+](C)(C)CC(C)(C)CN1C(=O)c3ccc(C)cc3C1=O)C2=O    log10 EC50            1.56
 2  CC(C)(C)c1ccc2c(c1)C(=O)N(CCC[N+](C)(C)CCCCCC[N+](C)(C)CCCN1C(=O)c3ccc(C(C)(C)C)cc3C1=O)C2=O    log10 EC50            2.48
 3  CC(C)(CN1C(=O)c2ccccc2C1=O)C[N+](C)(C)CCCCCC[N+](C)(C)CCCN1C(=O)c2ccccc2C1=O    log10 EC50            2.13
 4  C[N+](C)(CCCCCC[N+](C)(C)CCCN1C(=O)c2cc3ccccc3cc2C1=O)CCCN1C(=O)c2ccccc2C1=O    log10 EC50            2.16
 5  Cc1ccc2c(c1)C(=O)N(CCC[N+](C)(C)CCCCCC[N+](C)(C)CCCN1C(=O)c3cccc4cccc(c34)C1=O)C2=O    log10 EC50            1.40
 6  C[N+](C)(CCCCCC[N+](C)(C)CCCN1C(=O)C2C3c4ccccc4C(c4ccccc43)C2C1=O)CCCN1C(=O)c2ccccc2C1=O (stereo unspecified)    log10 EC50            2.31
 7  C[N+](C)(CCCCCC[N+](C)(C)CCCN1C(=O)c2cccc3cccc(c23)C1=O)CCCN1C(=O)c2cccc3cccc(c23)C1=O    log10 EC50            1.14
 8  Cc1ccc2c(c1)C(=O)N(CC(C)(C)C[N+](C)(C)CCCCCC[N+](C)(C)CC(C)(C)CN1C(=O)c3ccc(C)cc3C1=O)C2=O    log10 EC50            1.67
 9  CC(C)(CN1C(=O)c2ccccc2C1=O)C[N+](C)(C)CCCCCC[N+](C)(C)CC(C)(C)CN1C(=O)c2ccccc2C1=O    log10 EC50            2.25
10  Cc1ccc2c(c1)C(=O)N(CC(C)(C)C[N+](C)(C)CCCCCC[N+](C)(C)CC(C)(C)CN1C(=O)c3cccc4cccc(c34)C1=O)C2=O    log10 EC50            1.15
11  Cc1ccc2c(c1)C(=O)N(CCC[N+](C)(C)CCCCCC[N+](C)(C)CCCN1C(=O)c3ccccc3C1=O)C2=O    log10 EC50            2.51
